Measured binding signal values are reported for all entries that follow.
System Tested: GST-Aq-NF-kB (Amphimedon queenslandica, UniProt A9Y5G7 2-389)
Sequence: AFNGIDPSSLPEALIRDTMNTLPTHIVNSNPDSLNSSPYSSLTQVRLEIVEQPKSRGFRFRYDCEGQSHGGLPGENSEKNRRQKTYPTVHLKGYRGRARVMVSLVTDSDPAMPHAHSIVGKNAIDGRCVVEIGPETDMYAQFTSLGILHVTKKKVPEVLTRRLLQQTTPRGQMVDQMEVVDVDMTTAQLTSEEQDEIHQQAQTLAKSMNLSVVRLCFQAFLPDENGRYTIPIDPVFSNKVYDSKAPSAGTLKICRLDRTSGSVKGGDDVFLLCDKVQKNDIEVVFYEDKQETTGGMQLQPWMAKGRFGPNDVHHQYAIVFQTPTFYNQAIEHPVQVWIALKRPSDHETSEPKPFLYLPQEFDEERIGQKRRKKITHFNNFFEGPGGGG
Assay Overview: protein-binding microarray (PBM); PBM: ~300 nM protein, 6 mM HEPES pH 7.8, 80 mM KCl, 0.5 mM EDTA, 0.5 mM EGTA, 6% glycerol, 35 ng/ul poly-dIdC, 1% milk, 1 h, room temperature; Ap Aiptasia and Nv Nematostella (sea anemones) / Co Capsaspora / Aq Amphimedon (sponge) / Dm Drosophila / Hu human; RHD is the Rel homology domain; high values mean tight binding
Assay Context: dsDNA, one strand shown
The number alone won't do; follow it with the unit.

Examples with answers:
Ask: Please look up its binding signal: `CCGATTAACATCAAGGGGTTTCCTGATGTTAATCGGGTCTTGATTCGCTTGACGCTGCTG`
Result: 6.62 z-score

Ask: Lookup `CCGATTAACATCAAAAGGGAATTTGATGTTAATCGGGTCTTGATTCGCTTGACGCTGCTG`
Result: 4.96 z-score

Shift focus to the following entry.
Ask: Please look up its binding signal: `CCGATTAACATCACGGGATTACCTGATGTTAATCGGGTCTTGATTCGCTTGACGCTGCTG`
Result: 4.66 z-score
